- assayed-system: Acetylcholinesterase (Mus musculus, UniProt P21836)
- Sequence (P21836 whole entry): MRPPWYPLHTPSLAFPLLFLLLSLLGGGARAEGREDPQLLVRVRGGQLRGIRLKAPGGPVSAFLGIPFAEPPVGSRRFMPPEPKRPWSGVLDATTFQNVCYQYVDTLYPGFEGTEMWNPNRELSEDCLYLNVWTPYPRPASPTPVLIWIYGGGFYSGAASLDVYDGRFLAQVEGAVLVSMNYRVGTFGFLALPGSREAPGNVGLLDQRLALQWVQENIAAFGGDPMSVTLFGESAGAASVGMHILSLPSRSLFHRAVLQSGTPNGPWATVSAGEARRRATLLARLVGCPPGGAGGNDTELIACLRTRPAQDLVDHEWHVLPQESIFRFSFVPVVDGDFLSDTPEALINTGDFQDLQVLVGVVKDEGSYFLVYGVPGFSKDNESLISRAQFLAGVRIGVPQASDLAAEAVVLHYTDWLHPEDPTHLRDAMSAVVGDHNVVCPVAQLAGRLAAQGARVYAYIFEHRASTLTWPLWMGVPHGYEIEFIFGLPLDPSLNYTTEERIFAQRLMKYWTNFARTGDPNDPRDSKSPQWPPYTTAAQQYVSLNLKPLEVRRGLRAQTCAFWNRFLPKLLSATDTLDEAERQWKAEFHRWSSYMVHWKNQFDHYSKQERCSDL
pIC50: −log10 of the molar value.
Give true when the value for pIC50 is at least 5. Give false when it is less.

# example entries with known answers
O=C1/C(=C/c2ccc(O)c(O)c2)Oc2cc(O)ccc21 [SULFURETIN]    false
COc1ccc(/C=C2\Oc3cc(OCCN4CCCC4)ccc3C2=O)c(OC)c1    true
COc1ccc(OC)c(/C=C2\Oc3cc(OCCCN4CCCC4)ccc3C2=O)c1    true
COc1ccc(/C=C2\Oc3cc(OCCN4CCCC4)ccc3C2=O)cc1    true
COc1cc(/C=C2\Oc3cc(OCCN4CCCC4)ccc3C2=O)cc(OC)c1OC    true
O=C1/C(=C/c2ccc(O)cc2)Oc2cc(OCCN3CCOCC3)ccc21    false

Test whether the compound `COc1ccc(/C=C2\Oc3cc(OCCCN4CCCC4)ccc3C2=O)cc1OC` records pIC50 of 5 or higher.
true

Quick check, pIC50 >= 5? `COc1ccc(/C=C2\Oc3cc(OCCCCCN4CCCCC4)ccc3C2=O)cc1OC`
true

Please indicate if the recorded pIC50 for `COc1cccc(/C=C2\Oc3cc(OCCCN4CCCCC4)ccc3C2=O)c1` meets or exceeds 5.
true

Please tell me: is the compound `COc1ccc(/C=C2\Oc3cc(OCCN4CCCCC4)ccc3C2=O)cc1OC.Cl` at or over 5 in terms of pIC50?
true

Confirm if pIC50 reported for the compound `COc1cccc(/C=C2\Oc3cc(OCCCN4CCCC4)ccc3C2=O)c1` is 5 or above.
true

Decide: is the reported value of pIC50 for `COc1ccccc1/C=C1\Oc2cc(OCCN3CCCCC3)ccc2C1=O` equal to or greater than 5?
true

* * *

- assayed-system: Acetylcholinesterase (Mus musculus, UniProt P21836)
- Sequence (P21836 whole entry): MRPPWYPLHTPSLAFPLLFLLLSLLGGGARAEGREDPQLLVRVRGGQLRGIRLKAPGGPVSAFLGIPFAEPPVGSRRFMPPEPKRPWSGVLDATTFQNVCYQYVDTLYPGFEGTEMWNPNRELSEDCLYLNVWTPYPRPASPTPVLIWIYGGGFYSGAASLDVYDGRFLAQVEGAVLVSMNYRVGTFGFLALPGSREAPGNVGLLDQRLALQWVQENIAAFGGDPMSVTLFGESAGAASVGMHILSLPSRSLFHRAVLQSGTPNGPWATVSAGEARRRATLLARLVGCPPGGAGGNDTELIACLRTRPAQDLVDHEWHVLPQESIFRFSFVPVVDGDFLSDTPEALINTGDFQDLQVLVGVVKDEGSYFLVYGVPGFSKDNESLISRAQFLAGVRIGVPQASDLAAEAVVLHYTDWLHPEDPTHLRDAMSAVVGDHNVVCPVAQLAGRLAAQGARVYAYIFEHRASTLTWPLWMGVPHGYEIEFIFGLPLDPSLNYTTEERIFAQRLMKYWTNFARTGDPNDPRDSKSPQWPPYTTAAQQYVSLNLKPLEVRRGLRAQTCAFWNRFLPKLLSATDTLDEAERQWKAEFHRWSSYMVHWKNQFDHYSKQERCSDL
Form field: IC50 (one value per entry).
Write the value in nM as a bare number.

COc1ccc(/C=C2\Oc3cc(OCCN4CCCC4)ccc3C2=O)cc1OC    750
COc1cccc(/C=C2\Oc3cc(OCCCN4CCCC4)ccc3C2=O)c1OC    1050
COc1ccc(/C=C2\Oc3cc(OCCCN4CCCC4)ccc3C2=O)c(OC)c1    1660

Using the record for `COc1ccc(/C=C2\Oc3cc(OCCCCN4CCCCC4)ccc3C2=O)cc1OC` , report its IC50.
1520

Give the measured IC50 of `COc1ccc(/C=C2\Oc3cc(OCCN4CCCCC4)ccc3C2=O)cc1` .
900

Looking for the measured IC50 of `COc1ccc(/C=C2\Oc3cc(OCCCN4CCCCC4)ccc3C2=O)cc1OC` , can you help?
890

* * *

pIC50 tested on UniProt:P21836: recorded values
Note on units: pIC50 is unitless, being -log10 of a concentration expressed in mol/L.

O=C1/C(=C/c2ccc(O)cc2)Oc2cc(OCCN3CCCC3)ccc21    4.95
O=C1/C(=C/c2ccc(O)cc2)Oc2cc(OCCN3CCCCC3)ccc21    4.87
COc1cccc(/C=C2\Oc3cc(OCCN4CCCC4)ccc3C2=O)c1    5.79

Form: Entry = `CCN(CC)CCOc1ccc2c(c1)O/C(=C\c1ccc(O)cc1)C2=O` | System = UniProt:P21836 | pIC50 = ____
4.45

Find the measured pIC50: item `COc1cc(/C=C2\Oc3cc(OCCN4CCCC4)ccc3C2=O)cc(OC)c1` , target or system UniProt:P21836.
5.32

Any idea what pIC50 came out for `COc1ccc(/C=C2\Oc3cc(OCCN4CCCC4)ccc3C2=O)c(OC)c1OC` on UniProt:P21836?
4.86

Provide the documented pIC50 with UniProt:P21836 as the system for `COc1cc(/C=C2\Oc3cc(OCCCN4CCCC4)ccc3C2=O)cc(OC)c1`
5.33

Item `COc1cccc(/C=C2\Oc3cc(OCCN4CCCCC4)ccc3C2=O)c1` with UniProt:P21836 - pIC50?
5.94

Quick check: pIC50 on UniProt:P21836, item `COc1cc(/C=C2\Oc3cc(OCCN4CCCCC4)ccc3C2=O)cc(OC)c1OC` ?
5.95

Look up pIC50 with UniProt:P21836 for this compound: `COc1ccc(/C=C2\Oc3cc(OCCCN4CCCC4)ccc3C2=O)cc1`
5.48

* * *

- assayed-system: Acetylcholinesterase (Mus musculus, UniProt P21836)
Reported pIC50 by item:
The quantity pIC50 is defined as the negative base-10 logarithm of the molar concentration.

Please review the following examples before continuing.
COc1ccc(OC)c(/C=C2\Oc3cc(OCCN4CCCC4)ccc3C2=O)c1    5.83
COc1ccccc1/C=C1\Oc2cc(OCCCN3CCCC3)ccc2C1=O    5.23
COc1ccccc1/C=C1\Oc2cc(OCCN3CCCC3)ccc2C1=O    5.54

Below: the item to evaluate.
What pIC50 value was documented for this compound, `COc1cccc(/C=C2\Oc3cc(OCCN4CCCC4)ccc3C2=O)c1OC` ?
6.00
